# TESTED SYSTEM: Gal-8N (Homo sapiens)
# Construct: consisting of residues 4-158 was produced by Lund Protein Production Platform; made in house; host or cells: E. coli TUNER(DE3)
# Sequence (O00214 4-158): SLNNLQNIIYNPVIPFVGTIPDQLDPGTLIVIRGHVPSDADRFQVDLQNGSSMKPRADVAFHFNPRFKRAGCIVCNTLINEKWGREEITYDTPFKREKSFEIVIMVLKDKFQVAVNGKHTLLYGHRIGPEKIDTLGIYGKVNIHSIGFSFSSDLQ
# ASSAY PROTOCOL: ligand efficiency (LE) and ligand-lipophilicity efficiency (LLE) calculations
# ASSAY CONDITIONS: from Gal-8N Kd and number of non-hydrogen atoms
MEASURE NAME: LE

Notebook: Cn1c(CO[C@H]2[C@@H](O)[C@@H](CO)O[C@H](Sc3ccc(Cl)c(Cl)c3)[C@@H]2OCC2CCCCC2)nc2ccc(C(=O)O)cc21 , LE read as 0.180 (kcal/mol)/heavy atom

Notebook: Cn1c(CO[C@H]2[C@@H](O)[C@@H](CO)O[C@H](Sc3ccc(Cl)c(Cl)c3)[C@@H]2OCc2cccc(Cl)c2)nc2ccc(C(=O)O)cc21 , LE read as 0.187 (kcal/mol)/heavy atom

Notebook: CO[C@@H]1[C@@H](OCc2nc3ccc(C(=O)O)cc3n2C)[C@@H](O)[C@@H](CO)O[C@@H]1Sc1ccc(Cl)c(Cl)c1 , LE read as 0.231 (kcal/mol)/heavy atom

Notebook: Cn1c(CO[C@H]2[C@@H](O)[C@@H](CO)O[C@H](Sc3ccc(Cl)c(Cl)c3)[C@@H]2OCc2cn(-c3ccccc3C(=O)O)nn2)nc2ccc(C(=O)O)cc21 [Compound 16a] , LE read as 0.177 (kcal/mol)/heavy atom

Notebook: COC(=O)c1cccc(-n2cc(CO[C@@H]3[C@@H](OCc4nc5ccc(C(=O)O)cc5n4C)[C@@H](O)[C@@H](CO)O[C@@H]3Sc3ccc(Cl)c(Cl)c3)nn2)c1 [Compound 15b] , LE read as 0.146 (kcal/mol)/heavy atom

Notebook: COC(=O)c1ccc(-n2cc(CO[C@@H]3[C@@H](OCc4nc5ccc(C(=O)O)cc5n4C)[C@@H](O)[C@@H](CO)O[C@@H]3Sc3ccc(Cl)c(Cl)c3)nn2)cc1 [Compound 15c] , LE read as 0.147 (kcal/mol)/heavy atom

Data origin, for the record: paper PMC11850616
